# measurement_target: human androgen receptor (hAR) (Homo sapiens)
# Construct: expressed in transfected cells; host or cells: CHO (Chinese hamster ovary) cells
# Sequence (P10275 1-920): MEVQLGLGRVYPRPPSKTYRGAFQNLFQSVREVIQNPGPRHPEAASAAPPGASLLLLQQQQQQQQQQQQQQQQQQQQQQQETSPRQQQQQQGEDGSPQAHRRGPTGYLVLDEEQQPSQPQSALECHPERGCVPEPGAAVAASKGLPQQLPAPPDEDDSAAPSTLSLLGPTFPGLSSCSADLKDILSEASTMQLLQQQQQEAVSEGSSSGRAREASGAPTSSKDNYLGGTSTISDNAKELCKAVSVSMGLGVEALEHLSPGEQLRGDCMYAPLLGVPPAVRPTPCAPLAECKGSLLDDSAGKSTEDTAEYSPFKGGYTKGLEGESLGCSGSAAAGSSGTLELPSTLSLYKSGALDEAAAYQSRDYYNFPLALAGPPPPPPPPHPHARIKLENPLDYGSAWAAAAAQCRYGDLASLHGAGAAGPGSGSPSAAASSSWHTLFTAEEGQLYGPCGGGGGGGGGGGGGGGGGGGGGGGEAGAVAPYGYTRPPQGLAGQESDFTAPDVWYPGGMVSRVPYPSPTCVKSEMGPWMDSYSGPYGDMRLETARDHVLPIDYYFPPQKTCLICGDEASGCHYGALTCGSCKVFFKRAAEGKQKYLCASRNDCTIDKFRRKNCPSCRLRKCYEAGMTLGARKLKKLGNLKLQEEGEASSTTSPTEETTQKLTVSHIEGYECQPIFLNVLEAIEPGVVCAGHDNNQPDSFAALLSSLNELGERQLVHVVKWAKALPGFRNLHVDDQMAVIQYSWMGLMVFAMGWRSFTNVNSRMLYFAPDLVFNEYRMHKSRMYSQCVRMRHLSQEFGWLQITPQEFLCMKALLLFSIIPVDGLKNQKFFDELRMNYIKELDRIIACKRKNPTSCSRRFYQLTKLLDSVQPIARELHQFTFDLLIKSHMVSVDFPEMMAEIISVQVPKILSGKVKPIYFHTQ
# method_description: Androgenic activity (transactivation in CHO cells transfected with hAR, MMTV-luciferase, compared with 5α-dihydrotestosterone)
# Format: cell-based
# Set-up: key: (−) very weak activity found; (+) activity found; (++) high activity; (+++) excellent activity
# experimental_conditions: rated by scheme

[
  {
    "cpd_smiles": "C[C@@H]1C=C2[C@@H]3CCC4=CC(=O)CC[C@@H]4[C@H]3CC[C@]2(C)[C@H]1O",
    "Androgenic activity": "+"
  },
  {
    "cpd_smiles": "CC[C@@H]1CC2=C(CCC(=O)C2)[C@H]2CC[C@@]3(C)C(=C(C)C[C@@H]3O)[C@H]12",
    "Androgenic activity": "Prodrug"
  },
  {
    "cpd_smiles": "CC[C@@H]1CC2=C(CC[C@@H](O)C2)[C@H]2CC[C@@]3(C)C(=C(C)C[C@@H]3O)[C@H]12",
    "Androgenic activity": "Prodrug"
  },
  {
    "cpd_smiles": "C[C@H]1C=C2[C@@H]3CCC4=CC(=O)CC[C@@H]4[C@H]3CC[C@]2(C)[C@H]1O",
    "Androgenic activity": "++"
  },
  {
    "cpd_smiles": "C[C@@H]1C=C2[C@H]3[C@H](CC[C@]2(C)[C@H]1O)[C@H]1CCC(=O)C=C1C[C@H]3C",
    "Androgenic activity": "++"
  },
  {
    "cpd_smiles": "CC[C@@H]1CC2=CC(=O)CC[C@@H]2[C@H]2CC[C@@]3(C)C(=C[C@@H](C)[C@@H]3O)[C@H]12",
    "Androgenic activity": "++"
  },
  {
    "cpd_smiles": "CC1=C2[C@H]3[C@H](CC[C@]2(C)[C@@H](O)C1)[C@H]1CCC(=O)C=C1C[C@H]3C",
    "Androgenic activity": "++"
  }
]

* * *

# measurement_target: human progesterone receptor B (hPRB) (Homo sapiens, UniProt P06401)
# Construct: expressed in transfected cells; host or cells: CHO (Chinese hamster ovary) cells
# Sequence (P06401 whole entry): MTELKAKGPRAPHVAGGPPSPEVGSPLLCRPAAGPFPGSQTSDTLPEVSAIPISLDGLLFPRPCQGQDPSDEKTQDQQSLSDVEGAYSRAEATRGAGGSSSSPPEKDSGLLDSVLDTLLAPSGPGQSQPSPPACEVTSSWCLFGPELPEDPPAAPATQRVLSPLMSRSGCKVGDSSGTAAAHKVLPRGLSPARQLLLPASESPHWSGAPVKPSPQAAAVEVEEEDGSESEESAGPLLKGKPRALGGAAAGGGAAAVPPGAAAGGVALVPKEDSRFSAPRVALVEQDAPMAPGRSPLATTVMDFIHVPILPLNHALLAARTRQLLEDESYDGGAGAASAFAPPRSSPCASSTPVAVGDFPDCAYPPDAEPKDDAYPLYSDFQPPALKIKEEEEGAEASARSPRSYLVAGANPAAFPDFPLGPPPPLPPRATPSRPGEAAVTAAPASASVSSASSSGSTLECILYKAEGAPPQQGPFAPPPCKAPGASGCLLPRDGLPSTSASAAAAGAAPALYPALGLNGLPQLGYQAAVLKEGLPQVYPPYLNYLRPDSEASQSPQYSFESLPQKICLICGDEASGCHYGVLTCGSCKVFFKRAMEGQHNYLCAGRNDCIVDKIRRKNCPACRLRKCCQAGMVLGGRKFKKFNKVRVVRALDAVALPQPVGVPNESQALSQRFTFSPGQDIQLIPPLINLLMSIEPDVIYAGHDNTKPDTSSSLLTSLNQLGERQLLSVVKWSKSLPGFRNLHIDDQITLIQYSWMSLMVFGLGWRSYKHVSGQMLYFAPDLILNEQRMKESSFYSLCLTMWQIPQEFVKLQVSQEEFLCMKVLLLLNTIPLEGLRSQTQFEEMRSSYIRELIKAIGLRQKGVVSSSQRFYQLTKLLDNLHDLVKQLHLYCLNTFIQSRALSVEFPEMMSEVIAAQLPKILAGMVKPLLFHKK
# method_description: Progestational activity (transactivation in CHO cells transfected with hPRB, MMTV-luciferase, compared with (16α)-16-ethyl-21-hydroxy-19-norpregn-4-ene-3,20-dione)
# Assay type: cell-based
# experimental_conditions: rated by scheme

[
  {
    "cpd_smiles": "CC[C@@H]1CC2=C(CC[C@H](O)C2)[C@H]2CC[C@@]3(C)C(=C(C)C[C@@H]3O)[C@H]12",
    "Progestational activity": "Prodrug"
  },
  {
    "cpd_smiles": "C[C@@H]1C=C2[C@H]3[C@H](CC[C@]2(C)[C@H]1O)[C@H]1CCC(=O)C=C1C[C@H]3C",
    "Progestational activity": "+"
  },
  {
    "cpd_smiles": "C[C@H]1C=C2[C@@H]3CCC4=CC(=O)CC[C@@H]4[C@H]3CC[C@]2(C)[C@H]1O",
    "Progestational activity": "+"
  },
  {
    "cpd_smiles": "CC1=C2[C@H]3[C@H](CC[C@]2(C)[C@@H](O)C1)[C@H]1CCC(=O)C=C1C[C@H]3C",
    "Progestational activity": "++"
  },
  {
    "cpd_smiles": "CC[C@@H]1CC2=CC(=O)CC[C@@H]2[C@H]2CC[C@@]3(C)C(=C[C@@H](C)[C@@H]3O)[C@H]12",
    "Progestational activity": "+"
  },
  {
    "cpd_smiles": "CC[C@@H]1CC2=C(CCC(=O)C2)[C@H]2CC[C@@]3(C)C(=C(C)C[C@@H]3O)[C@H]12",
    "Progestational activity": "Prodrug"
  },
  {
    "cpd_smiles": "CC[C@@H]1CC2=C(CC[C@@H](O)C2)[C@H]2CC[C@@]3(C)C(=C(C)C[C@@H]3O)[C@H]12",
    "Progestational activity": "Prodrug"
  }
]
